Target or system Neuronal acetylcholine receptor subunit alpha-4 (Homo sapiens); recorded quantity AC50. Also: assay procedure not described here.

Some solved cases for reference:
Cc1cc(-c2ccccc2)nnc1NCCN1CCOCC1
> 10 µM
CS(=O)(=O)c1ccc([C@@H](O)[C@@H](CO)NC(=O)C(Cl)Cl)cc1
> 30 µM
COc1c(N2CCNC(C)C2)c(F)cc2c(=O)c(C(=O)O)cn(C3CC3)c12 (centres undefined)
> 10 µM
Nc1ncnc2c1ncn2[C@@H]1O[C@H](COP(=O)(O)O)[C@@H](O)[C@H]1O [ADENOSINE PHOSPHATE]
> 30 µM

For the next question, use this compound.
Query for Neuronal acetylcholine receptor subunit alpha-4 (Homo sapiens): what AC50 does the record show for C1=Cc2cccc(OCC3CNCCO3)c2C1 (centres undefined) ?
> 30 µM

* * *

Target: Androgen receptor (Rattus norvegicus, UniProt P15207); also: assay procedure not described here
Sequence (P15207 whole entry): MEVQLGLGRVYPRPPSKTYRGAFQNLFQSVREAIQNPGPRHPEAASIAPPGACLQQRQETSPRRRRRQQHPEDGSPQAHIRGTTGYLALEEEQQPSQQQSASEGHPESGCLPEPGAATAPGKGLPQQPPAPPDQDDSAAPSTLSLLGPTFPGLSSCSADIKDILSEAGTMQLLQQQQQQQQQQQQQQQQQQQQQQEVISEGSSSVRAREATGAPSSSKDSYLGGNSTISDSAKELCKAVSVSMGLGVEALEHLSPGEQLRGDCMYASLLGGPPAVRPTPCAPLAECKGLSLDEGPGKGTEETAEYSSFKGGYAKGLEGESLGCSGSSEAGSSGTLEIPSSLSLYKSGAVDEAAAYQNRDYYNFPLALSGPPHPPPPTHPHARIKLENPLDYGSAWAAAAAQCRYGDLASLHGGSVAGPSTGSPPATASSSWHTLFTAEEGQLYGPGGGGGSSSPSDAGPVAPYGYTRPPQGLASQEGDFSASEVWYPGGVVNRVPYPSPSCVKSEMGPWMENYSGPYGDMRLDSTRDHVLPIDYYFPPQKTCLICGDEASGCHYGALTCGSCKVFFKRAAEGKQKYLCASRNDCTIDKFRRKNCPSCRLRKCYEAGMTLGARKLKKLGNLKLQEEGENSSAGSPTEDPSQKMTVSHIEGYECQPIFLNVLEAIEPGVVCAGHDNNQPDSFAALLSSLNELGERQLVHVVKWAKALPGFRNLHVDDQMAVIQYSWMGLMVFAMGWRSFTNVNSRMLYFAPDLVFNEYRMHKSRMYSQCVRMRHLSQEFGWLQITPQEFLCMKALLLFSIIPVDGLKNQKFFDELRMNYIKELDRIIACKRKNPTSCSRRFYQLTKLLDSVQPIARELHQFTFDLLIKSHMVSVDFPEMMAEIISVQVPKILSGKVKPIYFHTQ
Assay type: functional
# AC50 per entry

Some solved cases for reference:
CCCCCCC(C)(C)c1cc(O)c2c(c1)OC(C)(C)C1CCC(=O)CC21 (configuration not stated)
> 30 µM
Cc1nc2ccc(CN(C)c3ccc(C(=O)N[C@@H](CCC(=O)O)C(=O)O)s3)cc2c(=O)[nH]1
> 30 µM
COc1ccc2c(c1)C(=O)N(CCc1ccc(S(=O)(=O)NC(=O)NC3CCCCC3)cc1)C(=O)C2(C)C
> 30 µM
CCCCN1CCCCC1C(=O)Nc1c(C)cccc1C (configuration not stated)
> 30 µM

Query for Androgen receptor (Rattus norvegicus, UniProt P15207): what AC50 does the record show for CCC(=O)OCC(=O)[C@@]1(OC(=O)CC)[C@H](C)C[C@H]2[C@H]3[C@H]([C@@H](O)C[C@@]21C)[C@@]1(C)C=CC(=O)C=C1C[C@H]3Cl [ALCLOMETASONE DIPROPIONATE] ?
9.4 µM

Query for Androgen receptor (Rattus norvegicus, UniProt P15207): what AC50 does the record show for COC(=O)N[C@H](C(=O)N1CCC[C@H]1c1nc(-c2ccc(-c3ccc(-c4c[nH]c([C@@H]5CCCN5C(=O)[C@@H](NC(=O)OC)C(C)C)n4)cc3)cc2)c[nH]1)C(C)C ?
> 30 µM

Query for Androgen receptor (Rattus norvegicus, UniProt P15207): what AC50 does the record show for CO/N=C(\C(=O)N[C@@H]1C(=O)N2C(C(=O)[O-])=C(C[N+]3(C)CCCC3)CS[C@H]12)c1csc(N)n1 ?
> 30 µM
